- measurement-protocol: folding stability dG unfold from trypsin proteolysis; higher = more stable
assay-endpoint: folding stability dG unfold
For clarity, give the value followed by its unit.

[in] Item SAGGSAGGSMKTVEIELVNKETGKKVTITVNDGKVTIRITNPDGEEKELEFPSLEEALEALLSSAGGSAGGS [r12_511_TrROS_Hall] has what recorded folding stability dG unfold?
[out] 2.45 kcal/mol

[in] And SAGGSAGGSAGMVTETTVSRLPDGTVTTTTTEYVVHPDGSLEPVRERTTTTPVPPDVPAASAGGSAGGSAGG [r11_440_JUSTAS] ?
[out] 0.396 kcal/mol

[in] And SKKKVTININITPGDPEQMEENVRWAIKEAAENDPDKEVTITIHFPPGHPEWMRWIKELFTKKGIPITIHSA [r9_1202_TrROS] ?
[out] 2.88 kcal/mol

[in] And SAGGSAGGSAGGPMEPIELTFMIPHPNGHPIVAKTEIWRMKNGFFIKPEIYNPDGNPIPSAGGSAGGSAGGS [r10_1056_TrROS] ?
[out] -0.153 kcal/mol

[in] And SENPVLKNRPLPVVGTTERTSVAKPGESLDVKELPSNGIVATTPDGSTVGITVTVDANGNVLSLEIKPDPSA [r9_1195_JUSTAS] ?
[out] 0.00583 kcal/mol

[in] And SAGGSAGGSAGGMTYVTVTLKEGDTEVTLTFPLEKLPEVVPEPGIEILEVETSPLDPELLSAGGSAGGSAGG [r17_204_JUSTAS] ?
[out] 1.34 kcal/mol

[in] And SAGGSAGGMVTSSVSALPDGSYRLTITYPDGTVLTFEFDSEEEVAALLAELAEALPADAAVPLASAGGSAGG [r6_464_JUSTAS] ?
[out] 1.64 kcal/mol

[in] And SAGGSAGGSAEPPPLVVVTEVRTITVEIDLDDLSEEEREALENLDTVTITVTRVVVVPREDLSAGGSAGGSA [r18_127_TrROS_Hall] ?
[out] 2.42 kcal/mol

[in] And SKKKKEKKKKEKEKKEKKKVIVLSEEELLEKVRELAKKGKKVKIVVKTPDKELAERLAKEAEELGVEVEVSA [r9_468_TrROS_Hall] ?
[out] 1.45 kcal/mol

[in] And SAGGSAGGSMPVITVDPSIKEFKDEKGNKYLLTPVTVTLPNGVPVTVVYTTDPSTGKTTPATSGSAGGSAGG [r6_298_JUSTAS] ?
[out] 0.671 kcal/mol

[in] And SAGGSAGGNEIAEKLKKKYPNIKIKSVKINPKEGKIEIDLGFPKDAKPETIKKIEKEIEELAKKSAGGSAGG [r6_97_TrMRF] ?
[out] 0.578 kcal/mol

[in] And SAGGSAGGSAGMRKYTWPFRIPLGGKPFEIRVEMEYDPSSGKHRIEITPEAKDLIKKKIFSAGGSAGGSAGG [r11_91_TrROS] ?
[out] 0.59 kcal/mol

[in] And SAMKLSPELLKKLGLSKEDIKEIEIEVEPVPELSEEDLKKKNVTVYKVKIKIKVNGKEYEVELLFVEPKSAG [r14_483_TrROS_Hall] ?
[out] 1.83 kcal/mol

[in] And SAGGSAGGSAGGSPVIIPDKGYLVVELEEEGLLVVYPLYPDGEIGPAFVRPVHPDVPVLSAGGSAGGSAGGS [r4_409_TrMRF] ?
[out] 2.61 kcal/mol

---

- measurement-protocol: folding stability dG unfold from trypsin proteolysis; higher = more stable
Consider the following sequences; for each one, report its folding stability dG unfold.

[in] Item SAGGSAGGSAGGMVTVETAPAPEGTERVIRVTFLEVNPEDGTIVRPATLTFVVPPGDPLSAGGSAGGSAGGS [r10_86_TrMRF] has what recorded folding stability dG unfold?
[out] 0.397 kcal/mol

[in] And SAGGSAGGSAGPITYRLEIRYEIERIEVRVYPGPEGPLVGEFRIEVRLEVRVEALPPEETSAGGSAGGSAGG [r11_24_TrMRF] ?
[out] 3.69 kcal/mol

[in] And SAGGSAGGSAGGLTFRLPDGTRVRVRVELNEDGELRITVEVEPLPPPPPKVEFYSEEELKSAGGSAGGSAGG [r7_660_TrROS_Hall] ?
[out] 2.72 kcal/mol

[in] And SAGGMKIIPITPEMIEEAKKLGLTPEDEAFEFEVTLPNGEVLRGTLIIPPDNPDIPVEAEPYLNLDKSAGGS [r16_497_TrMRF] ?
[out] 0.555 kcal/mol

[in] And SAGGSAGGSAGGSDKDPDKMKPKPVFEMEIVTYEWEKDGDGDWEPLSVEVQRIRVYAMDSAGGSAGGSAGGS [r4_288_TrROS] ?
[out] 3.13 kcal/mol

[in] And SAGGSPARPVLVTITLPDGEEVTRRMTLEEIERLVAKDPNVKVTIELPDGSVYTVDPNTGTITKAPSAGGSA [r2_222_JUSTAS] ?
[out] 2.84 kcal/mol

[in] And SAGGSAGGSAGMETTDSVITYPDGSVVTVTTLPDGTTRVTTFYPESGLTEEEIVPAAELGSAGGSAGGSAGG [r11_1015_JUSTAS] ?
[out] 1.8 kcal/mol

[in] And SAGGSAGGSAGGKKLRIKVKNKKTGKEIEIEIDVEDKTIEEIAKELAKKLNFEVTEIEPVSAGGSAGGSAGG [r7_590_TrROS_Hall] ?
[out] 2.2 kcal/mol

[in] And SLGPLVELAELFPDFEPLGVEEEPLEDGGRLLRVIGRIPEIGAYLLIEVRLPPGGGIESIRAEWVPEDELSA [r9_274_TrMRF] ?
[out] 3.4 kcal/mol

[in] And SAGMIEISEEGDTLTVTVPPGVSLEEVREYVEKKYPGMDLQEITETALPDGTTTVTFNVKKNPPSPKLLSAG [r5_110_JUSTAS] ?
[out] -0.658 kcal/mol

[in] And NPGKPLEIDIEVDIFEFPGGKFAIITFPIRLPGNGYWVQIEFWINPDGGLVMKIDVYDPGNGKPEEITIPIS [r1_261_TrROS] ?
[out] 3.27 kcal/mol

[in] And PISAEEAVDYAKHLAERLLKENPPGQEEVEIEFQSPNGWTVKIEIDPNNRKIDVEVYPRNGEPIAKAKIKVS [r1_370_TrROS] ?
[out] 0.108 kcal/mol

[in] And SMVEKLPDGTTVIKGELPLDVSIEDVLAKLPDLKLASRTSETDPATGKRYYTFIVKPDGTVDVTSEPKLLSA [r9_238_JUSTAS] ?
[out] 0.645 kcal/mol

[in] And SAGGSAGGSAGGPIKVKADKVTVEKRRNPENGKEYVELTVPGPGGTRTGRFPAEDLDKISAGGSAGGSAGGS [r10_447_TrROS] ?
[out] -0.654 kcal/mol

---

- measurement-protocol: folding stability dG unfold from trypsin proteolysis; higher = more stable
assay-endpoint: folding stability dG unfold (kcal/mol)
// return numeric value only (unit: kcal/mol, not printed)

[in] Item SAGGSAGGSAGGEELEVSVSVSVTEVDGKLYLTATVTIDGKEYTFTAELTVTLPPPPPEESAGGSAGGSAGG [r7_413_TrROS_Hall] has what recorded folding stability dG unfold?
[out] 2.77

[in] And SAGGSAGGSAGPYVVTIELPSGERIEVAVPAERLEEHVEELKPLVEPARITVRPVAPDALSAGGSAGGSAGG [r11_103_TrMRF] ?
[out] 0.143

[in] And SAGGSAGGSAEKGIAFILLVTEEGDLEKALETAEELKKELEEKTGKPVEVVVNIFVVEPELFSAGGSAGGSA [r18_515_TrMRF] ?
[out] 1.81

[in] And SAGGSAMAYLVRAELEVEGPDGRRERLELVLVAEDLPLEEALAAAREAAAELGAELVSVEVEPLEPSAGGSA [r15_550_TrMRF] ?
[out] 0.858

[in] And SAGGSAGGSAGDEPNDVVKIDFTFFFEDGYMIEMDIVIVPNGNIAIEIEIEPIKPPDEGDSAGGSAGGSAGG [r11_998_TrROS] ?
[out] 2.06

[in] And SAGGSAGGSAGGGLSSAPPPVVALSSSVSLVPSPSGGILTVTTTTDAGSGTTTTTTTALSAGGSAGGSAGGS [r10_1137_JUSTAS] ?
[out] 2.44

[in] And SAGGSAGGSAGGKILVITAKIEDIPEIIEAAKKLGIDSVIIDIPETKEKIIITKDSVKLISAGGSAGGSAGG [r7_564_TrMRF] ?
[out] 1.54

[in] And SAGGSAGGSAGMKTYTAEEIKNLPPGAKVIEVDGKLKIEIDGKIYTIEPGETVEIEPLEESAGGSAGGSAGG [r17_91_TrROS_Hall] ?
[out] 1.57

[in] And SAGGSAGGSPGTLIEVRFPDRIVRIYQLPPGVYRVEVYEPPYLVATIELPNVTAEEAARLALGSAGGSAGGS [r20_8_TrMRF] ?
[out] 1.61

[in] And SMKPPVKVRIRIYNPETGEEIATIEIEFLPDGTVKVTIEIDGKKYEIEMSLDELLEALKKLPFKIVEIEPSA [r9_470_TrROS_Hall] ?
[out] 3.72

[in] And SMEMTPEERLLALLREARKKHPGKKIVLSVEEIEELLGVDLSAEEIAKLLKEELGIDEVEIVEEEEPEEESA [r9_738_TrROS_Hall] ?
[out] 2.11

[in] And SAGGSAGGSAGKRKIIFQVDNPEDMLDEIKIPPGGEVKIENIEIQPQPNGRHWAVFEIKDSAGGSAGGSAGG [r11_150_TrROS] ?
[out] -0.398

[in] And SAGNYYRVEVENPSEGKKVTIHIFPNGMINVEHDGGEHWIMIPPDNPDQIEEIASELAPNGYEVDIEPWSAG [r5_791_TrROS] ?
[out] 0.593

[in] And SAGGSAGGSASYIPVTYSFFFPDKPYVERVEAEYELGPDGTPRILSAKVEVFPVDFSPDELSAGGSAGGSAG [r3_138_TrMRF] ?
[out] 0.823
